Biological target: hSERT Y95F (Homo sapiens, UniProt P31645, Y95F)
Sequence (P31645 whole entry Y95F): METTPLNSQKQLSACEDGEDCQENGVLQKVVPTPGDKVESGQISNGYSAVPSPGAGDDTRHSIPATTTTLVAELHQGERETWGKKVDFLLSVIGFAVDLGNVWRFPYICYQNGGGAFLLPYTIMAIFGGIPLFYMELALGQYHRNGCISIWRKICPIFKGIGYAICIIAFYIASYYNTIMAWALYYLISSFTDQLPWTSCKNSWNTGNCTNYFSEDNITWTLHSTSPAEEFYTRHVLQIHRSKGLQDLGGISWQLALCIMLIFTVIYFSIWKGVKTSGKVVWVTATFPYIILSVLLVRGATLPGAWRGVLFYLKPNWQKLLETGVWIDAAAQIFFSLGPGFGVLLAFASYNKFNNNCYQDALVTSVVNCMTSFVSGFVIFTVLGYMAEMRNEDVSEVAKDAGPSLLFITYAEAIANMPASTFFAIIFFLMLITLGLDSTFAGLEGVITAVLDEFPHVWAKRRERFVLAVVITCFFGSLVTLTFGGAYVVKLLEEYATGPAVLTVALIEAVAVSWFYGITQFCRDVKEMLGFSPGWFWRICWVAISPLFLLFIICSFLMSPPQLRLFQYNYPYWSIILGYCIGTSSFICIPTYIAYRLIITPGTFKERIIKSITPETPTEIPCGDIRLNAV
Conditions: read-out: IC50 for inhibition of [3H]5HT uptake
OBSERVED_PROPERTY: pIC50
Lab note: report pIC50 as minus log10 of the concentration in molar units, number only.

Q: Please give the measured pIC50 for this compound: CNC(C)Cc1ccc2c(c1)OCO2 (stereo not shown) [MDMA, 3,4-methylenedioxymethamphetamine]
Ans: 5.51

====

Target: hSERT WT (Homo sapiens, UniProt P31645)
Sequence (P31645 whole entry): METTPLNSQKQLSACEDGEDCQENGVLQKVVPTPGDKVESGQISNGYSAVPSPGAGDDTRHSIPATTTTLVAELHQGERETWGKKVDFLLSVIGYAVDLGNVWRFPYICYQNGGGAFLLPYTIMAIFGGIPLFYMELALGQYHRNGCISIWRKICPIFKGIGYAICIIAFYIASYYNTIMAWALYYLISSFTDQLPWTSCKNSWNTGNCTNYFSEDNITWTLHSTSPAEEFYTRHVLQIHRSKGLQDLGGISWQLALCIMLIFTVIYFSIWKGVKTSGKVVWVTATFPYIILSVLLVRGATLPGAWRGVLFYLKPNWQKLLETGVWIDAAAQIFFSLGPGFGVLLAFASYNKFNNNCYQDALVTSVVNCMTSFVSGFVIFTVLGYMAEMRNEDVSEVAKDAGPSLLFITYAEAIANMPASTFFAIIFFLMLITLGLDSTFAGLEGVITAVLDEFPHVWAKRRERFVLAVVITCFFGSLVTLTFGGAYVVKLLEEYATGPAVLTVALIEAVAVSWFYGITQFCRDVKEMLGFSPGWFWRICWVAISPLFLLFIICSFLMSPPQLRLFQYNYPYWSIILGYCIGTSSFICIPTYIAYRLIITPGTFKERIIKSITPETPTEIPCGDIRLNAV
Conditions: read-out: IC50 for inhibition of [3H]5HT uptake
OBSERVED_PROPERTY: IC50 (µM)
Give the value in µM but do not write µM after it.

Q: Please give the measured IC50 for this molecule: CNC(C)Cc1ccc2c(c1)OCO2 (stereo not shown)
Ans: 4.4

Source of measurements: paper PMC3107525
